All values here come from the OPERA property sets (Mansouri et al. 2018).

Each entry below lists one item and its recorded logP value.
Number only, no unit.

Example results:
- compound: "CCCNCc1ccc(C)cc1"
  observed: 2.96
- compound: "COc1ccc(C(C)=O)c(O)c1"
  observed: 1.98
- compound: "Nc1nnnn1-c1ccc(Cl)cc1Cl"
  observed: 1.62

// query # lookup: logP of COCC(O)CN(C(C)=O)c1c(I)c(C(=O)NCC(O)CO)c(I)c(C(=O)NCC(O)CO)c1I (configuration not stated)
// result -2.42

// query # lookup: logP of CCCCCCCOc1ccccc1NC(=O)OC(C)CN(CC)CC (configuration not stated)
// result 5.7

// query # lookup: logP of Cn1cc(-c2ccc(Cl)cc2)c(N2CCOCC2)c1
// result 4.2

// query # lookup: logP of Brc1ccc2ccc3c(Br)ccc4ccc1c2c43
// result 6.69
